IC50 values for the compounds below.
Tested on: neutrophils
Assay: Neutrophil calcium flux assay (5-OXO-ETE-stimulated, Indo-1 fluorescence)
Type: cell-based
Conditions: Neutrophil, 5-OXO-ETE-stimulated calcium flux

// solved cases for IC50 follow
# COMPOUND, ENDPOINT_RESULT
rows = [
    ("CC(CC(=O)O)CC(=O)c1c(CCCCO)n(C)c2ncc(C#N)cc12 (stereo not shown)", "> 300 nM"),
    ("CC(CN(C)C(=O)c1c(CCCCOCc2cccc(Cl)c2)n(C)c2ncc(C#N)cc12)C(=O)O (stereo not shown)", "> 300 nM"),
    ("CC(CC(=O)O)CC(=O)c1c(C[C@H]2CC[C@H](OCc3cccc(Cl)c3)CC2)n(C)c2ncc(C#N)cc12 (stereo partly shown)", "100 to 300 nM"),
    ("C[C@H](CC(=O)O)CC(=O)c1c(CCOCC#Cc2ccc(F)nc2)n(C)c2ncc(Cl)cc12", "100 to 300 nM"),
    ("C[C@H](CC(=O)O)CC(=O)c1c(CCCCC(=O)Nc2cccc(Cl)c2)n(C)c2ccc(Cl)cc12", "> 300 nM"),
]

Task item: Any idea what its IC50 is? The compound is Cn1c(CCCCCNc2cccc(Cl)c2)c(C(=O)N2CC[C@H](C(=O)O)C2)c2cc(Cl)cnc21
Reply: > 300 nM

Task item: Another compound to check: C[C@H](CC(=O)O)CC(=O)c1c(CCCCCCc2cccc(Cl)c2)n(CCO)c2ncc(C#N)cc12
Reply: < 100 nM

This collection of values is drawn from patent US20250154145A1.
